B1: HDV Ribozyme (parent)
chain: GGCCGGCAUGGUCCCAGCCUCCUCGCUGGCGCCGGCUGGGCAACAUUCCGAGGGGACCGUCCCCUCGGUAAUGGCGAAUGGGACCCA

- Variants of: B1
- PROCEDURE SUMMARY: self-cleavage, relative activity (ratio to wild type); higher = more cleavage; co-transcriptional
ASSAY METRIC: self-cleavage
Lab note: jot the number down without any unit.

Please report the recorded self-cleavage for C3A C44A .
0.103

Record: C58G A78C
0.102

Record: C21U G81A
0.0978

Record: C18A C48G
0.102
